- Protocol Text: qHTS screen for small molecules that induce genotoxicity in human embryonic kidney (HEK293T) cells expressing luciferase-tagged ELG1; also: nearly all actives have a fitted effect of over 60% in size
- Condition Summary: HEK293T ELG1-luciferase reporter, luminescence, 16 h; series mostly up to 46 µM
The whole screen tested about 330,000 compounds, of which about 4,200 (1.3%) were called active. Not shown: some 6% with an inconclusive outcome. Calls follow the shape of the dose curve; as a rule, active = well fitted activation curve with a large enough effect; inconclusive = small, poorly fitted or top-dose-only effect; inactive = no such curve, though single readings can be large or run the other way. Shown is part of a subset that was picked to be rich in actives.
Return exactly one item of active, inactive

Previously resolved entries follow.
| Entry Smiles | Category |
| --- | --- |
| C[C@H](CO)N1C[C@H](C)[C@@H](CN(C)Cc2ccc(-c3ccccc3)cc2)Oc2ccc(NC(=O)Cn3cnnn3)cc2C1=O | inactive |
| COc1cccc(-n2c(=S)[nH]c3c(oc4ccccc43)c2=O)c1 | inactive |
| NS(=O)(=O)c1ccc(CNC(=S)NC(=O)c2ccco2)cc1 | inactive |
| Cc1ccccc1-n1c(C)cc(/C=C2\NC(=O)NC2=O)c1C | active |
| O=C1CN(C(=O)COC(=O)/C=C/c2ccc(F)cc2)c2ccccc2N1 | inactive |

Data request: Record lookup: outcome of this test for Cc1cc(S(=O)(=O)N2CCOCC2)ccc1OCC(=O)N1CCOCC1 ?
Data returned: inactive

Data request: Record lookup: outcome of this test for O=c1oc2ccccc2cc1-c1cn(-c2ccccc2)c(=S)[nH]1 ?
Data returned: active

Data request: Record lookup: outcome of this test for Cc1ccc(-n2nc3cc(Cl)c(NC(=O)c4ccco4)cc3n2)cc1 ?
Data returned: active

Data request: Record lookup: outcome of this test for COc1cccc(-c2sc3ccc(OC)cc3c2-c2ccc(OCCN3CCCCC3)cc2)c1 ?
Data returned: inactive

Data request: Record lookup: outcome of this test for Cc1cc(/C=C2/NC(=O)NC2=O)c(C)n1-c1cccnc1 ?
Data returned: inactive
